assay_name: qHTS assay to identify small molecule antagonists of the peroxisome proliferator-activated receptor gamma (PPARg) signaling pathway - cell viability counter screen (AID 743194); note: % is set by controls: 0 for no effect and ±100 for the full control effect; nearly all actives have a fitted effect of over 55% in size
assay_conditions: PPARg-bla HEK293H viability, CellTiter-Glo luminescence, 17 h, co-treated with 50 nM rosiglitazone; series mostly up to 62.6 µM
Inconclusive results are not listed. Activity calls are given as the source filed them. Calls come from the whole dose curve; as a rule, active = well fitted cell-killing curve with a large enough effect in the repeat runs; inconclusive = weak or mixed curves, or effect the other way; inactive = no such curve, though single readings can be large or run the other way.
measurement_kind: activity change, negative = cytotoxicity

compound: CN(C)CCCOc1nn(Cc2ccccc2)c2ccccc12
measurement_kind: activity change, negative = cytotoxicity
assay_value: inactive
//
compound: ClC(Cl)(Cl)c1ccc(C(Cl)(Cl)Cl)cc1
measurement_kind: activity change, negative = cytotoxicity
assay_value: inactive
//
compound: N[C@H]1C(O)O[C@H](CO)[C@H](O)[C@@H]1O (some centres not stated)
measurement_kind: activity change, negative = cytotoxicity
assay_value: inactive
//
compound: COC(=O)CSc1cc(N=c2sc(=O)n3n2CCCC3)c(F)cc1Cl
measurement_kind: activity change, negative = cytotoxicity
assay_value: inactive
//
compound: CC(C)NCC(O)c1cc(O)cc(O)c1 (configuration not stated)
measurement_kind: activity change, negative = cytotoxicity
assay_value: inactive

Look up activity change, negative = cytotoxicity of CC(=O)N(O)CCCCCNC(=O)CCC(=O)N(O)CCCCCNC(=O)CCC(=O)N(O)CCCCCN and report it.
inactive

Note activity change, negative = cytotoxicity for the compound shown: CCOC(=O)C1=C(C)NC(C)=C(C(=O)OC)C1c1cccc([N+](=O)[O-])c1 (configuration not stated)
inactive

Name the recorded activity change, negative = cytotoxicity of the item Cn1c(NCCN(CCO)CCCc2ccc([N+](=O)[O-])cc2)cc(=O)n(C)c1=O in your answer.
inactive

Annotate the compound NC[C@H]1O[C@H](O[C@H]2[C@H](O)[C@@H](O[C@H]3O[C@H](CO)[C@@H](O)[C@H](N)[C@H]3O)[C@H](N)C[C@@H]2N)[C@H](O)[C@@H](O)[C@@H]1O with its measured activity change, negative = cytotoxicity.
-17.2% [at 5.95 µM] (inactive)

###

system_tested: Cytochrome P450 2C19 (Homo sapiens) (UniProt P33261)
Sequence (P33261 whole entry, looked up): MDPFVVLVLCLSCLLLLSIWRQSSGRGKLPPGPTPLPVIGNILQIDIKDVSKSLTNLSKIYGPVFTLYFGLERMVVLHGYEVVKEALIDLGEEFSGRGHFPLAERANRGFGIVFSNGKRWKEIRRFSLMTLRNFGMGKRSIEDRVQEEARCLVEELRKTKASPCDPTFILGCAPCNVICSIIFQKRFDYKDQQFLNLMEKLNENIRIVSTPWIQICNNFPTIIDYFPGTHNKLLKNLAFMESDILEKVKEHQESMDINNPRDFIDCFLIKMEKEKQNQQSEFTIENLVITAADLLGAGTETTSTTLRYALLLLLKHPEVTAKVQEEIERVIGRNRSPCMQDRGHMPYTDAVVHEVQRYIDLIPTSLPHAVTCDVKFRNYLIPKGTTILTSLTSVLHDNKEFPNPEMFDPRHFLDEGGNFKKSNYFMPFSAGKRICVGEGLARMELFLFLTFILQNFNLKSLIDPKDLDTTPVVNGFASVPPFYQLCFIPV
assay_name: Cytochrome P450 Family 2 Subfamily C Member 19 (CYP2C19) small molecule antagonists: luciferase reporter qHTS assay (AID 1671197); note: nearly all actives have a fitted effect of over 65% in size
assay_conditions: P450-Glo CYP2C19 enzyme, luciferin luminescence, 1 h; series mostly up to 115 µM
Inconclusive results are not listed. Calls of active or inactive are those of the source. Calls come from the whole dose curve; as a rule, active = well fitted inhibition curve with a large enough effect in the repeat runs; inconclusive = weak or mixed curves; inactive = no such curve, though single readings can be large or run the other way.
Choose the fitting class; nothing outside TRUE = active, FALSE = inactive is accepted.

Which outcome was assigned to C1CCC2OC2C1 (stereo not drawn) in this test?
FALSE

Assay result, entry O=C(O)/C=C/c1cnc[nH]1 — outcome?
TRUE

What classification did O=C(CC(=O)c1ccccc1)c1ccccc1 end up with in this test?
TRUE

Record lookup: outcome of this test for CCN(CC)C(C)=O ?
FALSE

Called result for CCCCC(CC)COCCCN (stereo not drawn)
TRUE

Check the results log: what was the call for Nc1cnn([C@@H]2O[C@H](CO)[C@@H](O)[C@H]2O)c(=O)n1 ?
FALSE

Tell me the recorded outcome of this test for CCOC(=O)C1=NN(c2ccccc2)C(=O)C1 .
FALSE

Fill in: this test's call for C#CCOC(=O)[C@@H](C)Oc1ccc(Oc2ncc(Cl)cc2F)cc1 is ___
TRUE

Recorded call for CC(C)(C)C1CCCCC1O (stereo not drawn) ?
FALSE

For O=C(O)Cn1c(C(=O)Nc2nc(-c3ccccc3Cl)cs2)cc2ccccc21 , which call appears in the assay record?
FALSE

Test call, this compound: N#Cc1c(F)cccc1F
FALSE

Answer briefly: the call reported for CC(C)c1ccc2c(C(C)C)cc(C(C)C)c(S(=O)(=O)O)c2c1 in this assay.
FALSE

Hi team, can someone confirm the assay call for CCN(CC)CCOc1ccc2c(c1)C(=O)c1cc(OCCN(CC)CC)ccc1-2 ?
FALSE
